- Experimental System: Troponin, cardiac muscle (Homo sapiens, UniProt P19429+P45379+P63316)
- Assay Name: compounds desensitizing RTF to calcium – biochemical, fluorescence, cardiac regulated thin filaments, triplicate IC50, dose response (AID 504742)
- Assay type: protein-complex assay
Activity calls are given as the source filed them.
Measurement Kind: IC50

Use these answered entries as a reference point.
1) O=C(O[C@@H]1OC2COC(=O)c3cc(O)c(O)c(O)c3-c3c(cc(O)c(O)c3O)C(=O)O[C@@H]([C@H]1O)[C@@H]2O)c1cc(O)c(O)c(O)c1 : 0.677 µM (active)
2) O=C(O)c1cc(O)c2c(c1)[C@@H]([C@H]1c3cc(C(=O)O)cc(O)c3C(=O)c3c(O[C@@H]4O[C@H](CO)[C@@H](O)[C@H](O)[C@H]4O)cccc31)c1cccc(OC3O[C@H](CO)[C@@H](O)[C@H](O)[C@H]3O)c1C2=O (some centres undefined) : 1.82 µM (active)
3) O=C1C=CC2=C3c4cc(O)c(O)cc4CC3(O)COC2=C1O (centres undefined) : 16.6 µM (inactive)

Please turn your attention to the following entry.
IC50 measured on O=C(O)CC(C(=O)O)N1C(=O)/C(=C/C=C/c2ccco2)SC1=S (centres undefined) = > 71.5 µM (inactive)

----------
- Experimental System: High affinity choline transporter 1 (Homo sapiens, UniProt Q9GZV3)
- Sequence (Q9GZV3 whole entry): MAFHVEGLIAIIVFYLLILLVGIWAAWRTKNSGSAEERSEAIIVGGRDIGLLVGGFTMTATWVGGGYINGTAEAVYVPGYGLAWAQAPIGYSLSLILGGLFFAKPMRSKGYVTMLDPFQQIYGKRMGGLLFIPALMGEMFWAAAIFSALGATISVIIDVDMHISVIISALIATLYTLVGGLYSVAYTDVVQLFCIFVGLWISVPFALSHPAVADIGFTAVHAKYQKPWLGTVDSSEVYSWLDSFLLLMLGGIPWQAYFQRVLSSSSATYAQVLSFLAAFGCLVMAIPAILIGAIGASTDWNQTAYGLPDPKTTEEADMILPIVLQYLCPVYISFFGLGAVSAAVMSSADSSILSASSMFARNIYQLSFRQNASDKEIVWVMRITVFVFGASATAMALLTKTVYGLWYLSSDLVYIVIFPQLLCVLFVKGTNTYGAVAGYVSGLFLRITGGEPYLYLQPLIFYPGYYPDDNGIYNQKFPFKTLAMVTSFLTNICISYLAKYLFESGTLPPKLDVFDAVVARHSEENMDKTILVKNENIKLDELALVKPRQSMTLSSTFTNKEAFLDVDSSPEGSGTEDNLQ
- Assay Name: human choline transporter blockers, potency – cell-based, 5-point CRC, membrane potential dye, dose response (AID 504840)
- Type: functional
The source made the active and inactive calls.
Reported IC50 values are given for each entry in this list.

Some molecules with recorded IC50:
1) CC1CCCC(NC(=O)c2ccc(C/N=c3\c(N4CCCC4)c(O)c3=O)cc2)C1C (configuration not stated) : 0.851 µM (active)
2) Cc1cccc(C2c3[nH]c4ccccc4c3CCN2C(=O)c2cc3c(nc2O)CCCC3)n1 (configuration not stated) : 11.2 µM (active)
3) N=C1CCCN1CC(=O)c1ccc(Br)cc1 : 6.07 µM (active)

Let us examine a further case.
Data point: O=C(Nc1ccc(S(=O)(=O)NCC2CCCO2)cc1)c1ccc(Cl)cc1[N+](=O)[O-] (configuration not stated) ; IC50 = 7.39 µM (active)

----------
- Assay Name: P. falciparum Dd2 growth inhibitors, dose response, SYBR Green, cherry-picked samples (AID 1159567)
- Assay type: functional, cell-based
Active and inactive are the calls of the source.
Measurement Kind: AC50

As a guide, the following entries are already answered.
1) COc1cccc(-c2ccc3c(c2)[C@H]2[C@H](CCN2C(=O)C2CCCCC2)[C@@H](CO)N3)c1 : 4.95 µM (active)
2) COc1ccc2c3c(n(C)c2c1)[C@H](CO)NCC31CCN(Cc2cc(-c3ccccc3)on2)CC1 : 1.64 µM (active)
3) O=C(Nc1cc(F)ccc1F)N1CC(=O)N2[C@H](CO)[C@@H](c3ccc(C#CC4CCCCC4)cc3)[C@@H]2C1 : 13.3 µM (active)

// AC50 value for `COc1ccc2c3c([nH]c2c1)[C@H](CO)N(Cc1ccccc1Cl)CC31CN(C(C)=O)C1` : 5.9 µM (active)

----------
- Experimental System: Cytochrome P450 2C9 (Homo sapiens, UniProt P11712)
- Sequence (P11712 whole entry): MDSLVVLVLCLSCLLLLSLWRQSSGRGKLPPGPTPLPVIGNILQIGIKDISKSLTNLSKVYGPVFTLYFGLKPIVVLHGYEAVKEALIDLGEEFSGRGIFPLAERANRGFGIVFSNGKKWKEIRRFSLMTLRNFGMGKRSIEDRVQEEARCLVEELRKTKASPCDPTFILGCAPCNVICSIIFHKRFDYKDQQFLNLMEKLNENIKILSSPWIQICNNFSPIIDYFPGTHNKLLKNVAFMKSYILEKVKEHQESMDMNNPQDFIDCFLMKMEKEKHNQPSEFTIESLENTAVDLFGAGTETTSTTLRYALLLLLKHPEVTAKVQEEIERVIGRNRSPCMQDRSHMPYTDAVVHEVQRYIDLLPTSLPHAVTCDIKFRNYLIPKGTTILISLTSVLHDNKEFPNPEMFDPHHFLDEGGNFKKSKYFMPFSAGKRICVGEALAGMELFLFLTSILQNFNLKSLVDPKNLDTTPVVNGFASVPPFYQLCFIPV
AC50 by entry:

Known results for molecules:
1. CC(C)CC(=O)O/N=C1\C(=O)N(c2ccccc2)c2ccccc21 : 6310 nM (inconclusive)
2. FC(F)(F)c1ccccc1-c1nccc(NCc2ccccc2)n1 : 1000 nM (inconclusive)
3. Cc1ccc([N+](=O)[O-])cc1/N=C(/c1cccc([N+](=O)[O-])c1)N1CCOCC1 : 25100 nM (inconclusive)
4. CC1=NN(c2ccccc2)C(=O)/C1=C\c1c(C)[nH]n(-c2ccccc2)c1=O : 2510 nM (inconclusive)

Please turn your attention to the following entry.
`COc1ccccc1CNc1ncnc2ccc(-c3ccccc3C#N)cc12` yielded AC50 of 631 nM (inconclusive)
